Origin of values: the array DNA melting data of Ke et al.

# method description: melting temperature; melt of duplexes
# experimental conditions: sodium 0.0675 M; strand 1 µM
measured attribute: Tm (°C)
Numbers only here, please. The scale is °C.

Here's what some known entries look like.
CGACGTGCTAAATGTGCTG+CAGCACATAACGCACGTCG ((((((((...((((((((+))))))))...)))))))) : 50
CGACGTGCTGCATGTGCTG+CAGCACATATCGCACGTCG ((((((((...((((((((+))))))))...)))))))) : 48.3

In: Look at this substance and give its reported Tm. CGACGTGCCGGATGTGCTG+CAGCACATACCGCACGTCG ((((((((.(.((((((((+)))))))).).))))))))
Out: 53.6

---

# method description: melting temperature; melt of duplexes
# experimental conditions: sodium 0.0675 M; strand 1 µM
Returns one of 1 or 0; 1 when Tm is >= 50 °C.

Before answering, review these 3 worked examples.
CGACGTGCGGAATGTGCTG+CAGCACATCAAGCACGTCG ((((((((...((((((((+))))))))...)))))))) : 1
CGACGTGCTCCATGTGCTG+CAGCACATCGTGCACGTCG ((((((((.(.((((((((+)))))))).).)))))))) : 0
CGACGTGCTGAATGTGCTG+CAGCACATGCAGCACGTCG ((((((((((.((((((((+)))))))).)))))))))) : 1

In: Item CGACGTGCGTCATGTGCTG+CAGCACATTGTGCACGTCG ((((((((...((((((((+))))))))...)))))))) with Tm of 50 °C or above?
Out: 0

---

# method description: melting temperature; melt of duplexes
# experimental conditions: sodium 0.0675 M; strand 1 µM
Catalogue of substances with associated Tm
Numbers only here, please. The scale is °C.

Here's what some known entries look like.
CGACGTGCGCAATGTGCTG+CAGCACATGATGCACGTCG ((((((((...((((((((+))))))))...)))))))) : 52.5
CGACGTGCACCATGTGCTG+CAGCACATGGCGCACGTCG ((((((((.((((((((((+)))))))))).)))))))) : 59.2
CGACGTGCCCAATGTGCTG+CAGCACATCAGGCACGTCG (((((((((..((((((((+))))))))..))))))))) : 53.9
CGACGTGCTCTATGTGCTG+CAGCACATGCGGCACGTCG ((((((((...((((((((+))))))))...)))))))) : 48.5
CGACGTGCCTGATGTGCTG+CAGCACATTATGCACGTCG ((((((((.(.((((((((+)))))))).).)))))))) : 50.2
CGACGTGCCAAATGTGCTG+CAGCACATAGAGCACGTCG ((((((((...((((((((+))))))))...)))))))) : 49.1
CGACGTGCTGAATGTGCTG+CAGCACATAGTGCACGTCG ((((((((...((((((((+))))))))...)))))))) : 45.3
CGACGTGCCTCATGTGCTG+CAGCACATACAGCACGTCG ((((((((...((((((((+))))))))...)))))))) : 48.3
CGACGTGCTATATGTGCTG+CAGCACATCGCGCACGTCG ((((((((...((((((((+))))))))...)))))))) : 46.6
CGACGTGCATTATGTGCTG+CAGCACATACTGCACGTCG (((((((((.(((((((((+))))))))).))))))))) : 53.8

In: Look at this substance and give its reported Tm. CGACGTGCACTATGTGCTG+CAGCACATCTGGCACGTCG ((((((((...((((((((+))))))))...))))))))
Out: 44.2

In: Look at this substance and give its reported Tm. CGACGTGCCACATGTGCTG+CAGCACATCGGGCACGTCG (((((((((..((((((((+))))))))..)))))))))
Out: 53.9

In: Look at this substance and give its reported Tm. CGACGTGCTAGATGTGCTG+CAGCACATTCGGCACGTCG ((((((((...((((((((+))))))))...))))))))
Out: 52.1

In: Look at this substance and give its reported Tm. CGACGTGCTCTATGTGCTG+CAGCACATTAAGCACGTCG (((((((((..((((((((+))))))))..)))))))))
Out: 51.1

In: Look at this substance and give its reported Tm. CGACGTGCTAAATGTGCTG+CAGCACATTTGGCACGTCG ((((((((.((((((((((+)))))))))).))))))))
Out: 57.9
